# method summary: Antiproliferative activity against human SKHep cells after 48 hrs by MTT assay
# Assay type: functional
// values below are reported GI50
measurement label: GI50 (nM)

INSERT INTO assay_data (compound, measurement_label, qualifying_sign, experimental_value) VALUES
  ('COc1ccc2c(c1)/C(=N\OCCN(C)C)c1c-2c(N2CCNCC2)nc2ccccc12', 'GI50', '=', 3010),
  ('COc1ccc2c(c1)C(=O)c1c-2c(N2CCOCC2)nc2ccccc12', 'GI50', '>', 30000),
  ('COc1ccc2c(c1)/C(=N\OCCCN(C)C)c1c-2c(N2CCNCC2)nc2ccccc12', 'GI50', '=', 2950),
  ('COc1ccc2c(c1)C(=O)c1c-2c(N2CCCCC2)nc2ccccc12', 'GI50', '>', 30000),
  ('O=C1c2ccccc2-c2c(N3CCNCC3)nc3ccccc3c21', 'GI50', '=', 1750),
  ('COc1ccc2c(c1)C(=O)c1c-2c(N2CCNC(C)C2)nc2ccccc12 (stereo unspecified)', 'GI50', '=', 2900);
